molecular target: T1, Anti-CD28 Fab (SEQ ID NOs: 696, 697); experiment: phage binding ELISA on captured anti-CD28 Fab; competitor CD28 antigen
T1 construct: Biotinylated and captured on neutravidin coated plates in the phage ELISA
T1 sequence (VH, as listed by the source, chain 1 of 2): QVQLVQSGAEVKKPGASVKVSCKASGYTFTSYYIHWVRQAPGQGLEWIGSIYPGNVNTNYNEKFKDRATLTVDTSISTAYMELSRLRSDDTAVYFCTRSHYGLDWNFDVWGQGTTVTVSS
T1 sequence (VL, as listed by the source, chain 2 of 2): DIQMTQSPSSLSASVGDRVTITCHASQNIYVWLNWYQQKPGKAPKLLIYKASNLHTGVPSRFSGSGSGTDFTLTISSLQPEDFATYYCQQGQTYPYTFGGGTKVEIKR
Where no end group is shown, it is not given here.
I would appreciate it if you labelled entries Y when Anti-CD28 Fab signal in the presence of CD28 is 0.08 or higher, otherwise N.

The following binders have reported results that may help.
binder	classAssignment
FMCLPQNPHPLCFK (Clonal phage supernatant; also called Peptide-77; not shown: fused to the pIII filament protein of the bacteriophage) [Phage-456]	N
PDCQTILFKPWCVR (cysteine pairing not given here; also: displayed as fusion to phage pIII, linker and pIII sequence not given here, Clonal phage supernatant; also called Peptide-78; not shown: fused to the pIII filament protein of the bacteriophage) [Phage-457]	N
DCWWMFESYPGRCI (cysteine pairing not given here; also: displayed as fusion to phage pIII, linker and pIII sequence not given here, Clonal phage supernatant; also called Peptide-86; not shown: fused to the pIII filament protein of the bacteriophage) [Phage-465]	N
SCAAGASYAWPYCL (Clonal phage supernatant; also called Peptide-92; not shown: fused to the pIII filament protein of the bacteriophage) [Phage-471]	N
YCAGHAWQYINKCL (cysteine pairing not given here; also: displayed as fusion to phage pIII, linker and pIII sequence not given here, Clonal phage supernatant; also called Peptide-87; not shown: fused to the pIII filament protein of the bacteriophage) [Phage-466]	N

Does the binder WCWDYKLWVPMTCP (cysteine pairing not given here; also: displayed as fusion to phage pIII, linker and pIII sequence not given here, Clonal phage supernatant; also called Peptide-85; not shown: fused to the pIII filament protein of the bacteriophage) [Phage-464] have recorded Anti-CD28 Fab signal in the presence of CD28 that is 0.08 or more?
Y

State whether the measured Anti-CD28 Fab signal in the presence of CD28 reaches 0.08, counting equality as reaching it, for WICDKSGSIMLCRA (Clonal phage supernatant; also called Peptide-91; not shown: fused to the pIII filament protein of the bacteriophage) [Phage-470]
N

I'd appreciate it if you could say whether ACDTYFAGMINECF (cysteine pairing not given here; also: displayed as fusion to phage pIII, linker and pIII sequence not given here, Clonal phage supernatant; also called Peptide-79; not shown: fused to the pIII filament protein of the bacteriophage) [Phage-458] has Anti-CD28 Fab signal in the presence of CD28 at least equal to 0.08.
Y

Threshold query (Anti-CD28 Fab signal in the presence of CD28 >= 0.08) on YWSCFQIPFTCFYF (Clonal phage supernatant; also called Peptide-75; not shown: fused to the pIII filament protein of the bacteriophage) [Phage-454]
Y
